test: Pharmacokinetics of 200 mg sertraline delivered to various portions of the gastrointestinal tract (four-way crossover); type: in vivo; conditions: human, plasma, Group B, Duodenal Infusion of 2 mg/ml solution

>  <smilesCode>
CN[C@H]1CC[C@@H](c2ccc(Cl)c(Cl)c2)c2ccccc21

>  <Tmax [h]>
3.7

$$$$

----------
assay: Screening of solubilizers for sertraline lactate solubility with and without chloride; details: water

>  <molecule>
CN[C@H]1CC[C@@H](c2ccc(Cl)c(Cl)c2)c2ccccc21 [sertraline lactate]

>  <solubility>
125 mg/mL

$$$$

----------
assay: clinical; details: male, human, in vivo, 200 mg

>  <smilesCode>
CN[C@H]1CC[C@@H](c2ccc(Cl)c(Cl)c2)c2ccccc21

>  <Cmax>
~70 ng/mL

$$$$

----------
assay: Pharmacokinetics of 200 mg sertraline delivered to various portions of the gastrointestinal tract (four-way crossover); type: in vivo; details: human, plasma, Group B, Colonic Infusion of 2 mg/ml solution

>  <smilesCode>
CN[C@H]1CC[C@@H](c2ccc(Cl)c(Cl)c2)c2ccccc21

>  <unitAbbrev>
h

>  <Tmax>
4.4

$$$$

----------
test: Pharmacokinetics of 200 mg sertraline delivered to various portions of the gastrointestinal tract (four-way crossover); format: in vivo; conditions: human, plasma, po, Group A, Oral Tablet, group average

>  <smilesCode>
CN[C@H]1CC[C@@H](c2ccc(Cl)c(Cl)c2)c2ccccc21

>  <Tmax (h)>
7

$$$$

----------
test: Pharmacokinetics of 200 mg sertraline delivered to various portions of the gastrointestinal tract (four-way crossover); assay type: in vivo; conditions: human, plasma, Group A, Ileocecal Infusion of 2 mg/ml solution
measurementType: Cmax (ng/mL)

>  <smilesCode>
CN[C@H]1CC[C@@H](c2ccc(Cl)c(Cl)c2)c2ccccc21

>  <numericReadout>
27.3

$$$$

----------
test: Pharmacokinetics of 200 mg sertraline delivered to various portions of the gastrointestinal tract (four-way crossover); type: in vivo; conditions: human, plasma, po, Group B, Oral Tablet

>  <smilesCode>
CN[C@H]1CC[C@@H](c2ccc(Cl)c(Cl)c2)c2ccccc21

>  <AUC, ng·h/mL>
1150

$$$$

----------
test: Pharmacokinetics of 200 mg sertraline delivered to various portions of the gastrointestinal tract (four-way crossover); type: in vivo; conditions: human, plasma, po, Group A, Oral Tablet (two 100 mg immediate release tablets), group average

>  <molecule>
CN[C@H]1CC[C@@H](c2ccc(Cl)c(Cl)c2)c2ccccc21 [sertraline]

>  <Cmax (ng/mL)>
39.9

$$$$

----------
assay: physchem; conditions: water, Sertraline Lactate Solubility, in water, excipient None

>  <molecule>
CN[C@H]1CC[C@@H](c2ccc(Cl)c(Cl)c2)c2ccccc21 [sertraline lactate]

>  <solubility>
~125 mg/mL

$$$$

----------
test: Pharmacokinetics of 200 mg sertraline delivered to various portions of the gastrointestinal tract (four-way crossover); format: in vivo; conditions: human, plasma, Group A, Ileocecal Infusion of 2 mg/ml solution
measurementType: Tmax

>  <smilesCode>
CN[C@H]1CC[C@@H](c2ccc(Cl)c(Cl)c2)c2ccccc21

>  <result>
5 h

$$$$

----------
experiment: Pharmacokinetics of 200 mg sertraline delivered to various portions of the gastrointestinal tract (four-way crossover); assay type: in vivo; details: human, plasma, Group B, Duodenal Infusion of 2 mg/ml solution

>  <smilesCode>
CN[C@H]1CC[C@@H](c2ccc(Cl)c(Cl)c2)c2ccccc21

>  <Cmax (ng/mL)>
48.8

$$$$

----------
assay: Pharmacokinetics of 200 mg sertraline delivered to various portions of the gastrointestinal tract (four-way crossover); format: in vivo; conditions: human, plasma, po, Group B, Oral Tablet

>  <molecule>
CN[C@H]1CC[C@@H](c2ccc(Cl)c(Cl)c2)c2ccccc21 [sertraline]

>  <Tmax>
6.7 h

$$$$

----------
assay: Pharmacokinetics of 200 mg sertraline delivered to various portions of the gastrointestinal tract (four-way crossover); type: in vivo; settings: human, plasma, po, Group B, Oral Tablet (two 100 mg immediate release tablets)
measurementType: Cmax

>  <smilesCode>
CN[C@H]1CC[C@@H](c2ccc(Cl)c(Cl)c2)c2ccccc21

>  <measurementType>
Cmax

>  <result>
44.7 ng/mL

$$$$

----------
test: Pharmacokinetics of 200 mg sertraline delivered to various portions of the gastrointestinal tract (four-way crossover); assay type: in vivo; settings: human, plasma, Group B, Duodenal Infusion of 2 mg/ml solution

>  <smilesCode>
CN[C@H]1CC[C@@H](c2ccc(Cl)c(Cl)c2)c2ccccc21

>  <AUC>
1270 ng·h/mL

$$$$

----------
test: Pharmacokinetics of 200 mg sertraline delivered to various portions of the gastrointestinal tract (four-way crossover); format: in vivo; conditions: human, plasma, Group A, Stomach Infusion of 2 mg/ml solution

>  <compound>
CN[C@H]1CC[C@@H](c2ccc(Cl)c(Cl)c2)c2ccccc21 [sertraline]

>  <unitAbbrev>
ng/mL

>  <Cmax>
35.6

$$$$
